meta.source: patent US9221796B2

- TARGET ENTITY: NR2B-subtype NMDA receptors (Rattus norvegicus (Rat), UniProt P35439+Q00960)
- Sequence (Q00960 27-1482, other chains not shown): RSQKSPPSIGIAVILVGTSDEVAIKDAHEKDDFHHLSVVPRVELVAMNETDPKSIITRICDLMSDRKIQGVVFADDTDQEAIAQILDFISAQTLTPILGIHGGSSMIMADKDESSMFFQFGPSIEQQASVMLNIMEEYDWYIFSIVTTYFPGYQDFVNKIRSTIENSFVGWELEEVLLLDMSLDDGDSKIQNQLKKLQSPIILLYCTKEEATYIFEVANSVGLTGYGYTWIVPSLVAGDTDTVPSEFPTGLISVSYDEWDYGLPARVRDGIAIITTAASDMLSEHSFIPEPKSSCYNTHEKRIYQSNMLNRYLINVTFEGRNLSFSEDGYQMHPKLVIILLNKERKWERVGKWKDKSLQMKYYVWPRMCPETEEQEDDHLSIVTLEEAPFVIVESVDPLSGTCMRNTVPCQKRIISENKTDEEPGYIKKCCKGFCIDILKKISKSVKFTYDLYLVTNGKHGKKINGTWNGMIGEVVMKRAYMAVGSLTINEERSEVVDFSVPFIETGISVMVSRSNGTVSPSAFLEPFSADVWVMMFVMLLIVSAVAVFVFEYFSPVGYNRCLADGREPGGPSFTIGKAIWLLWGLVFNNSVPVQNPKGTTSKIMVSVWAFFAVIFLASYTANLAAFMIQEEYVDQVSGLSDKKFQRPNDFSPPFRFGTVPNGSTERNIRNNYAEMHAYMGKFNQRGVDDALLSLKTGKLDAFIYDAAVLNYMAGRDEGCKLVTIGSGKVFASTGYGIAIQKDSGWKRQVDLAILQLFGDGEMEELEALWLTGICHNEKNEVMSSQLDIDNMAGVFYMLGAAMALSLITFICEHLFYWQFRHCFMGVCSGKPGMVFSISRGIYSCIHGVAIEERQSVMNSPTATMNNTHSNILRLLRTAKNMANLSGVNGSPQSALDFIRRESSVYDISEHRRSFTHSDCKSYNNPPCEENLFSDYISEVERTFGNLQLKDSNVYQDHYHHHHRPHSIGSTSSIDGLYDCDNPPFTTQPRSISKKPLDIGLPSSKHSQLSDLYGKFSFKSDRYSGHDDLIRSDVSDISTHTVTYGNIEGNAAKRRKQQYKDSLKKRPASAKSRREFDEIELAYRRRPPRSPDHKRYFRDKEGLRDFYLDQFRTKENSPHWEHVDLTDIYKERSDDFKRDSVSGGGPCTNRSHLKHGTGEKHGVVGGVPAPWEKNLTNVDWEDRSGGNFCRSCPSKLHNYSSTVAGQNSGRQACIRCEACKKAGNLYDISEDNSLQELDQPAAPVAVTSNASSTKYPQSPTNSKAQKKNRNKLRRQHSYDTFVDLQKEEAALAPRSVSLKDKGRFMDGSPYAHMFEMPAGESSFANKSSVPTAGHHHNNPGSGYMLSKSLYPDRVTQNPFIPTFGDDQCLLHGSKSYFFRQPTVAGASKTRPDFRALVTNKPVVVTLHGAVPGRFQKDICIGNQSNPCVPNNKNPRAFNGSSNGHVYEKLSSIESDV
- METHOD DESCRIPTION: Radioligand binding assay (3H Ro 25-6981 competition, forebrain membranes)
- RUN CONDITIONS: 3H Ro 25-6981 (4 nM), read-out: NR2B Binding Ki
PROPERTY NAME: Ki (nM)

Some solved cases for reference:
Request: State its Ki on NR2B-subtype NMDA receptors (Rattus norvegicus (Rat), UniProt P35439+Q00960): "O=C1[C@H](N2CCC(c3ccc(O)cc3)CC2)CCN1Cc1ccc(F)cc1"
Response: 1.4

Request: Same lookup for Cc1cccc(CN2CCC(N3CCC(c4ccc(O)cc4)C(F)(F)C3)C2=O)c1 (centres unmarked) [Example 104] , please.
Response: 130

a: Cc1ccc(CN2CC[C@@H](N3CC[C@@H](c4ccc(O)c(F)c4)[C@H](F)C3)C2=O)cc1
b: C[C@@H](c1ccccc1)N1CCC(N2CC[C@@H](c3ccc(O)cc3)[C@H](F)C2)C1=O (some centres unmarked)
Request: Select one. Lower Ki: a or b When you have decided, please share the label of that item.
Response: a

a: O=C1[C@H](N2CC[C@@H](c3ccc(O)cc3)[C@H](F)C2)CCN1Cc1ccc(Cl)cc1
b: Cc1ccccc1CN1CCC(N2CC[C@@H](c3ccc(O)cc3)[C@H](F)C2)C1=O (some centres unmarked)
Request: Select one. Lower Ki: a or b When you have decided, please share the label of that item.
Response: a
(a: 3.6 nM, b: 81 nM)

1: O=C1[C@H](N2CC[C@@H](c3ccc(O)cc3)[C@H](F)C2)CCN1Cc1ccc(Cl)c(F)c1
2: O=C1[C@@H](N2CCC(c3ccc(O)cc3)C(F)(F)C2)CCN1Cc1ccc(Cl)cc1 (some centres unmarked) [Example 95, P-1]
Request: Field: entry with larger Ki (options 1 / 2 ). When you have decided, please share the label of that item.
Response: 2
(2: 54 nM, 1: 6.5 nM)

a: O=C1[C@H](N2CCC(c3ccc(O)cc3)C(F)(F)C2)CCN1Cc1ccc(Cl)cc1 (some centres unmarked) [Example 95, P-2]
b: Cc1ccc(CN2CCC(N3CCCC(c4ccc(O)cc4)C3)C2=O)cc1 (centres unmarked)
c: O=C1C(N2CCC(c3ccc(O)cc3)C(F)(F)C2)CCN1Cc1ccc(F)c(Cl)c1 (centres unmarked) [Example 100]
d: Cc1ccc(N2CC[C@@H](N3CC[C@H](c4ccc(O)cc4)[C@@H](F)C3)C2=O)cc1F
Request: Please give the order of these compounds when sorted by Ki, largest value leading. Use the labels to give the requested order.
Response: b, c, d, a
